Data origin, for the record: PubChem BioAssay (NCI)

test.method.notes: NCI Yeast Anticancer Drug Screen. Data for the sgs1 mgt1 strain (AID 161);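 note: 0% = growth of cultures given vehicle only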
test.conditions: S. cerevisiae sgs1 mgt1 strain, at 50.0 µM, active compounds read high
This is part of a sample that, as a whole, favours compounds with a hit. Of some 79,000 tested, about 15% had one in any assay. Activity calls are given as the source filed them. Cut-off read from the data, not from the text of the source: active = growth inhibition above about 70%; inactive = the rest.
measured.quantity: growth inhibition

>  <molecule>
C=Cn1c2ccccc2c2ccccc21

>  <growth inhibition>
26.9% (inactive)

$$$$
>  <molecule>
O=[N+]([O-])c1cccc(C2=NON(c3ncccn3)C3N=CC=CN23)c1 (stereo unspecified)

>  <growth inhibition>
14.3% (inactive)

$$$$
>  <molecule>
NC(=O)NOCC(N)C(=O)O (stereo unspecified)

>  <growth inhibition>
1.15% (inactive)

$$$$
>  <molecule>
CN(C)c1nc(=O)c2ccccc2o1

>  <growth inhibition>
-28.4% (inactive)

$$$$
>  <molecule>
CCOCCOCCOC(=O)c1ccccc1O

>  <growth inhibition>
-4.4% (inactive)

$$$$
>  <molecule>
C=CC(C)C(C)C (stereo unspecified)

>  <growth inhibition>
-7.55% (inactive)

$$$$
>  <molecule>
CC(C)(O)C(Cc1ccccc1)c1ccccc1 (stereo unspecified)

>  <growth inhibition>
-16.1% (inactive)

$$$$
>  <molecule>
CC1=C(c2cc(C(=O)Nc3cccc(Cl)c3)nc(NC#N)n2)Sc2ccccc2N1

>  <growth inhibition>
-0.7% (inactive)

$$$$

Hi, could you look up growth inhibition for each item in my list?
1. ClCc1c(Cl)c(Cl)c(CCl)c(Cl)c1Cl
2. CC(C)CCC(=O)OC/C(=N\Nc1ccc([N+](=O)[O-])cc1[N+](=O)[O-])c1ccc(-c2ccccc2)cc1
3. O=C(O)c1cccc(-c2nn[nH]n2)c1
4. CCOC(=O)c1cc2cc(Cc3ccc4[nH]c(C(=O)OCC)cc4c3)ccc2[nH]1
5. CC(C)c1ccc(O)c(C(C)(C)C)c1
6. COC(=O)c1cc(=O)c2c(=O)[nH]c(=O)[nH]c2[nH]1
7. CC(O)(C(=O)O)C(NC(=O)c1ccccc1)C(=O)O (stereo unspecified)
8. CCN(CC)CCOC(NC(C)=O)(c1ccccc1)c1ccccc1

1: 3.1% (inactive); 2: -15.8% (inactive); 3: -4.55% (inactive); 4: -26.2% (inactive); 5: -14.3% (inactive); 6: 2% (inactive); 7: -2.5% (inactive); 8: 9.85% (inactive)

Record growth inhibition per entry; entries follow.
1. Cc1c(Cl)cccc1NC(=O)c1c(Cl)c(Cl)c(Cl)c(Cl)c1C(=O)O
2. CN(C)C(=O)Nc1ccc2c(c1)OCO2
3. COc1cc(N)c(OC)nn1

8.6% (inactive)
-1.4% (inactive)
3.15% (inactive)

Hi team, please reply with growth inhibition for each item in this list.
1. CCC(=O)OCc1ccc(Cl)cc1
2. OCC(O)C1OC2CC1Nc1ccccc1N2 (stereo unspecified)
3. COC(OC)C1(CCc2ccccc2)NC(=O)N(C)C1=O (stereo unspecified)
4. C/C(CC(=O)Nc1ccccc1C)=N/NS(=O)(=O)c1ccc(C)cc1
5. COC(=O)c1ccccc1N=CCC(C)CCCC(C)(C)O (stereo unspecified)

1: 7.9% (inactive); 2: 9.6% (inactive); 3: 5.6% (inactive); 4: 10.2% (inactive); 5: 26.4% (inactive)

Record growth inhibition per entry; entries follow.
1. O=C(O)c1ccccc1SC1OC(=O)c2ccccc21 (stereo unspecified)
2. Nc1ccc(-c2c[nH]c(=O)c([N+](=O)[O-])c2)cc1

1: 2.35% (inactive); 2: -1.35% (inactive)
